target: T1, rHuman Notch-1/Fc Chimera, CF (R&D Systems Cat#3647-TK) (human, UniProt P46531 19-526); assay: ECL multispot (MSD) binding assay, antigen spotted on plate, Fab 0.04 uM;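 further: purified Fab incubated 1 h at 20 °C on antigen spots, detected via TAG-labelled antibody, ECL read against each well's blank, with signal-to-blank of at least 4 scored as binder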
T1 construct: Bought recombinant protein; Fc part of the bought chimera not given
Observation type: ECL signal
Provide a numeric answer; units are not to be included.

Notebook: Fab VH5-51_IGHD5-18*01>3_IGHJ4*01 G100K/G104T (H:KT) & V3-4_IGLJ1*01 I98A (Fab, V domains shown, Fab; Expressed from Plasmid A (CH1, His6 and Flag tags) and Plasmid E (lambda CL); also called KT & I98A) VH: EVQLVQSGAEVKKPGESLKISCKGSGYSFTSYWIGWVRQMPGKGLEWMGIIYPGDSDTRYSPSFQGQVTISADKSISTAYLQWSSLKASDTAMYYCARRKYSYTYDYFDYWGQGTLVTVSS VL: QTVVTQEPSFSVSPGGTVTLTCGLSSGSVSTSYYPSWYQQTPGQAPRTLIYSTNTRSSGVPDRFSGSILGNKAALTITGAQADDESDYYCVLYMGSGASYVFGTGTKVTVL , ECL signal read as 700

Notebook: Fab VH5-51_IGHD5-18*01>3_IGHJ4*01 G100K/G104T (H:KT) & V3-4_IGLJ1*01 M94A (Fab, V domains shown, Fab; Expressed from Plasmid A (CH1, His6 and Flag tags) and Plasmid E (lambda CL); also called KT & M94A) VH: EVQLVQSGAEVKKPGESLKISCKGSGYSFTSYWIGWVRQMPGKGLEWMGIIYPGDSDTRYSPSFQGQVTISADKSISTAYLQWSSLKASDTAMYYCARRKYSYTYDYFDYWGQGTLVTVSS VL: QTVVTQEPSFSVSPGGTVTLTCGLSSGSVSTSYYPSWYQQTPGQAPRTLIYSTNTRSSGVPDRFSGSILGNKAALTITGAQADDESDYYCVLYAGSGISYVFGTGTKVTVL , ECL signal read as 574

Notebook: Fab VH5-51_IGHD5-18*01>3_IGHJ4*01 G100K/G104T (H:KT) & V3-4_IGLJ1*01 Y93A (Fab, V domains shown, Fab; Expressed from Plasmid A (CH1, His6 and Flag tags) and Plasmid E (lambda CL); also called KT & Y93A) VH: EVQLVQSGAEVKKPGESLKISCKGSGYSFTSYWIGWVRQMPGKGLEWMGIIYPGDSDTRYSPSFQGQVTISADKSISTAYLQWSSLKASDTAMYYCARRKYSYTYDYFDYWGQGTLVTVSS VL: QTVVTQEPSFSVSPGGTVTLTCGLSSGSVSTSYYPSWYQQTPGQAPRTLIYSTNTRSSGVPDRFSGSILGNKAALTITGAQADDESDYYCVLAMGSGISYVFGTGTKVTVL , ECL signal read as 725

Notebook: Fab VH5-51_IGHD5-18*01>3_IGHJ4*01 G100K/G104T (H:KT) & V3-4_IGLJ1*01 V91A (Fab, V domains shown, Fab; Expressed from Plasmid A (CH1, His6 and Flag tags) and Plasmid E (lambda CL); also called KT & V91A) VH: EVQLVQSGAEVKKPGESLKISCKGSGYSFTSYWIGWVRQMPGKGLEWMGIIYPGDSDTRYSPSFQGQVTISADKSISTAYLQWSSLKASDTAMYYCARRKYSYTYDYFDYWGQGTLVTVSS VL: QTVVTQEPSFSVSPGGTVTLTCGLSSGSVSTSYYPSWYQQTPGQAPRTLIYSTNTRSSGVPDRFSGSILGNKAALTITGAQADDESDYYCALYMGSGISYVFGTGTKVTVL , ECL signal read as 682
